Where do the numbers come from? From patent US20220274954A1.

Tested on: Triticum aestivum
Experiment: Post-emergence crop plant compatibility
Assay type: in vivo
Details: application rate 1.25 g/ha
recorded endpoint: Triticum aestivum (efficacy in %)
Answers are plain numbers, in %.

// below: answered compounds
In [3]: df
Out[3]:
                                   compound                  recorded_endpoint  recorded_number
0  CCOC(=O)COc1ncc(F)cc1Sc1cc(-n2c(=O)cc(C(F)(F)F)n(N)c2=O)c(F)cc1Cl [I.31-442]  Triticum aestivum (efficacy in %)               10
1  COCCOCCOC(=O)COc1ncccc1Sc1cc(-n2c(=O)cc(C(F)(F)F)n(N)c2=O)c(F)cc1Cl [I.1-23]  Triticum aestivum (efficacy in %)               20
2  CCOC(=O)CCOc1ncccc1Sc1cc(-n2c(=O)cc(C(F)(F)F)n(N)c2=O)c(F)cc1Cl [I.5-442]  Triticum aestivum (efficacy in %)               10
3  CCCCCOC(=O)COc1ncccc1Sc1cc(-n2c(=O)cc(C(F)(F)F)n(N)c2=O)c(F)cc1Cl [I.1-448]  Triticum aestivum (efficacy in %)                0
4  COC(=O)COc1ncccc1Sc1cc(-n2c(=O)cc(C(F)(F)F)n(N)c2=O)c(F)cc1Cl [I.1-441]  Triticum aestivum (efficacy in %)               20
5  Nn1c(C(F)(F)F)cc(=O)n(-c2cc(Sc3cccnc3OCC(=O)OCc3ccccn3)c(Cl)cc2F)c1=O [I.1-286]  Triticum aestivum (efficacy in %)               20

Next item in the queue.
# get_value(readout='Triticum aestivum (efficacy in %)', item= Nn1c(C(F)(F)F)cc(=O)n(-c2cc(Sc3cccnc3OCC(=O)OCc3ccccc3)c(Cl)cc2F)c1=O [I.1-457] ) 20

* * *

Record form. Attribute: Zea mays (efficacy in %). Fill in for each entry.
System: Zea mays
Test: Post-emergence crop plant compatibility
Assay type: in vivo
Conditions: application rate 1.25 g/ha

Give measured Zea mays (efficacy in %) for every item shown.
1. COC(=O)COc1ncccc1Sc1cc(-n2c(=O)cc(C(F)(F)F)n(N)c2=O)c(F)cc1Cl [I.1-441]
2. CCOC(=O)COc1ncccc1Sc1cc(-n2c(=O)cc(C(F)(F)F)n(N)c2=O)c(F)cc1Cl [I.1-442]
3. CCOC(=O)C(C)Oc1ncccc1Sc1cc(-n2c(=O)cc(C(F)(F)F)n(N)c2=O)c(F)cc1Cl (stereo not drawn) [I.2-442]
4. Nn1c(C(F)(F)F)cc(=O)n(-c2cc(Sc3cccnc3OCC(=O)OCc3ccccc3)c(Cl)cc2F)c1=O [I.1-457]
5. COC(=O)CCCOc1ncccc1Sc1cc(-n2c(=O)cc(C(F)(F)F)n(N)c2=O)c(F)cc1Cl [I.6-441]

1: 20%; 2: 20%; 3: 10%; 4: 20%; 5: 10%

# get_value(readout='Zea mays (efficacy in %)', item= COCCOCCOC(=O)COc1ncccc1Sc1cc(-n2c(=O)cc(C(F)(F)F)n(N)c2=O)c(F)cc1Cl [I.1-23] ) 20%

* * *

System: Digitaria sanguinalis
Assay: Post-emergence herbicidal action
Type: in vivo
Conditions: 504 h, application rate 5 g/ha, read-out: Digitaria sanguinalis (efficacy in %)
recorded endpoint: pest or weed control at 5 g/ha
Report as: number unit

// below: answered compounds
>>> print(df.to_string())
                               given_smiles            system_name  result
0  CCOCCOC(=O)COc1ncccc1Sc1cc(-n2c(=O)cc(C(F)(F)F)n(N)c2=O)c(F)cc1Cl  Digitaria sanguinalis    100%
1  CCCCOC(=O)COc1ncccc1Sc1cc(-n2c(=O)cc(C(F)(F)F)n(N)c2=O)c(F)cc1Cl  Digitaria sanguinalis    100%
2  COC(=O)CCCOc1ncccc1Sc1cc(-n2c(=O)cc(C(F)(F)F)n(N)c2=O)c(F)cc1Cl  Digitaria sanguinalis     80%
3  Nn1c(C(F)(F)F)cc(=O)n(-c2cc(Sc3cccnc3OCC(=O)OCc3ccccc3)c(Cl)cc2F)c1=O  Digitaria sanguinalis    100%
4  COC(=O)COc1ncccc1Sc1cc(-n2c(=O)cc(C(F)(F)F)n(N)c2=O)c(F)cc1Cl  Digitaria sanguinalis     90%

Next item in the queue.
# get_value(readout='pest or weed control at 5 g/ha', item= `COCCOCCOC(=O)COc1ncccc1Sc1cc(-n2c(=O)cc(C(F)(F)F)n(N)c2=O)c(F)cc1Cl` ) 100%

* * *

Test system: Amaranthus retroflexus
Test: Post-emergence herbicidal action
Format: in vivo
Conditions: Amaranthus retroflexus, 504 h, application rate 5 g/ha, read-out: Amaranthus retroflexus (efficacy in %)
recorded endpoint: pest or weed control at 5 g/ha (%)
Numbers only, in %.

// below: answered compounds
In [3]: df
Out[3]:
                                   compound  unit_text  recorded_number
0  Nn1c(C(F)(F)F)cc(=O)n(-c2cc(Sc3cccnc3OCCC(=O)OCc3ccccc3)c(Cl)cc2F)c1=O [I.5-457]          %              100
1  CCCCOC(=O)COc1ncccc1Sc1cc(-n2c(=O)cc(C(F)(F)F)n(N)c2=O)c(F)cc1Cl [I.1-447]          %              100

Next item in the queue.
Look up pest or weed control at 5 g/ha with Amaranthus retroflexus for this compound: COCCOCCOC(=O)COc1ncccc1Sc1cc(-n2c(=O)cc(C(F)(F)F)n(N)c2=O)c(F)cc1Cl [I.1-23] 100

* * *

System: Stellaria media
Assay: Post-emergence herbicidal action
Assay type: in vivo
Conditions: application rate 5 g/ha
recorded endpoint: Stellaria media (efficacy in %)

// below: answered molecules
>>> df
                                   molecule      system_name  result
0  CCOC(=O)C(C)Oc1ncccc1Sc1cc(-n2c(=O)cc(C(F)(F)F)n(N)c2=O)c(F)cc1Cl (stereo not shown)  Stellaria media     80%
1  COC(=O)CCCOc1ncccc1Sc1cc(-n2c(=O)cc(C(F)(F)F)n(N)c2=O)c(F)cc1Cl  Stellaria media    100%
2  COC(=O)COc1ncccc1Sc1cc(-n2c(=O)cc(C(F)(F)F)n(N)c2=O)c(F)cc1Cl  Stellaria media    100%

Next item in the queue.
Look up Stellaria media (efficacy in %) with Stellaria media for this molecule: `Nn1c(C(F)(F)F)cc(=O)n(-c2cc(Sc3cccnc3OCCC(=O)OCc3ccccc3)c(Cl)cc2F)c1=O` 80%

* * *

Tested on: Alopecurus myosuroides
Assay: Post-emergence herbicidal action
Type: in vivo
Settings: application rate 5 g/ha
recorded endpoint: Alopecurus myosuroides (efficacy in %)
Report as: number unit

Give measured Alopecurus myosuroides (efficacy in %) for every item shown.
1. Nn1c(C(F)(F)F)cc(=O)n(-c2cc(Sc3cccnc3OCC(=O)OCc3ccccc3)c(Cl)cc2F)c1=O
2. N#CCOC(=O)COc1ncccc1Sc1cc(-n2c(=O)cc(C(F)(F)F)n(N)c2=O)c(F)cc1Cl
3. Nn1c(C(F)(F)F)cc(=O)n(-c2cc(Sc3cccnc3OCC(=O)O)c(Cl)cc2F)c1=O
4. CCCCOC(=O)COc1ncccc1Sc1cc(-n2c(=O)cc(C(F)(F)F)n(N)c2=O)c(F)cc1Cl
5. C=CCOC(=O)COc1ncccc1Sc1cc(-n2c(=O)cc(C(F)(F)F)n(N)c2=O)c(F)cc1Cl
6. Nn1c(C(F)(F)F)cc(=O)n(-c2cc(Sc3cccnc3OCC(=O)OCc3ccccn3)c(Cl)cc2F)c1=O
7. Nn1c(C(F)(F)F)cc(=O)n(-c2cc(Sc3cccnc3OCC(=O)OC3COC3)c(Cl)cc2F)c1=O
8. CCOC(=O)COc1ncc(F)cc1Sc1cc(-n2c(=O)cc(C(F)(F)F)n(N)c2=O)c(F)cc1Cl

["80%", "90%", "100%", "80%", "80%", "100%", "80%", "80%"]

* * *

Record form. Attribute: Oryza sativa (efficacy in %). Fill in for each entry.
Tested on: Oryza sativa
Assay: Post-emergence crop plant compatibility
Assay type: in vivo
Details: application rate 1.25 g/ha
Numbers only, in %.

>>> print(df.to_string())
                               given_smiles   system_name             recorded_endpoint  recorded_number
0  Nn1c(C(F)(F)F)cc(=O)n(-c2cc(Sc3cccnc3OCCC(=O)OCc3ccccc3)c(Cl)cc2F)c1=O  Oryza sativa  Oryza sativa (efficacy in %)                0
1  C=CCOC(=O)COc1ncccc1Sc1cc(-n2c(=O)cc(C(F)(F)F)n(N)c2=O)c(F)cc1Cl  Oryza sativa  Oryza sativa (efficacy in %)                0
2  COC(=O)COc1ncccc1Sc1cc(-n2c(=O)cc(C(F)(F)F)n(N)c2=O)c(F)cc1Cl  Oryza sativa  Oryza sativa (efficacy in %)               10

Give measured Oryza sativa (efficacy in %) for every item shown.
1. CCCCOC(=O)COc1ncccc1Sc1cc(-n2c(=O)cc(C(F)(F)F)n(N)c2=O)c(F)cc1Cl
2. Nn1c(C(F)(F)F)cc(=O)n(-c2cc(Sc3cccnc3OCC(=O)O)c(Cl)cc2F)c1=O
3. CCOCCOC(=O)COc1ncccc1Sc1cc(-n2c(=O)cc(C(F)(F)F)n(N)c2=O)c(F)cc1Cl
4. CCOC(=O)COc1ncc(F)cc1Sc1cc(-n2c(=O)cc(C(F)(F)F)n(N)c2=O)c(F)cc1Cl
5. COCCOCCOC(=O)COc1ncccc1Sc1cc(-n2c(=O)cc(C(F)(F)F)n(N)c2=O)c(F)cc1Cl

1. 0
2. 10
3. 0
4. 0
5. 20
